Every entry's value here was drawn from PubChem BioAssay.

Target under test: Caspase-3 (Homo sapiens) (UniProt P42574)
Sequence (P42574 28-227 limits assumed): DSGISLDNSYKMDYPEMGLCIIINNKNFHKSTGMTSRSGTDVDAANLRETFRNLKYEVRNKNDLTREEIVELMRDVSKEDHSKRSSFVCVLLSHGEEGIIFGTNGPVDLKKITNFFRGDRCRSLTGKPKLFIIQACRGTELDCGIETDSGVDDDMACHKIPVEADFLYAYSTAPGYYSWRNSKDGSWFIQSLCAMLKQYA
Assay summary: caspase-3 protease inhibitors, confirmation, selectivity assay for SENP inhibitor project, biochemical, single concentration (AID 488918);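 further: plate controls were enzyme with DMSO for no effect and wells without caspase-3 for full effect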
Recorded conditions: purified caspase-3, Z-DEVD-aminoluciferin luminescence, 60 min; at 12.5 µM; stronger effect = higher value
This is one part of the list.
Readout: inhibition (%)

> print(dat)
                                    compound     readout  readout.value
 1          COc1ccc(/C=N/Nc2ccccc2C(=O)O)cc1  inhibition             96
 2         Oc1cccc2ccc(/C=C/c3ccc(Br)s3)nc12  inhibition           59.9
 3            CCCc1cc(C(=O)Nc2ccc(Cl)cn2)cs1  inhibition           66.8
 4            Nc1ccc(-c2nnc(-c3ccccc3)o2)cc1  inhibition           65.7
 5                  Fc1ccc2nc(N3CCCCC3)sc2c1  inhibition           80.5
 6             Cc1ccc(-c2nc3ccccc3[nH]2)cc1N  inhibition           96.7
 7               O=C(Nc1ccncc1)c1cc2ccccc2o1  inhibition           75.6
 8           O=C(Nc1ccccc1Cl)Nc1cccc2cccnc12  inhibition           25.9
 9  O=C(OC1CCOC1=O)c1ccc(-c2nc3ccccc3s2)s1 (stereo unspecified)  inhibition           96.3
10      COc1cccc2sc(Nc3nc(C)c(C(C)=O)s3)nc12  inhibition           56.6
11  CC(=O)Oc1ccc2c(=O)oc(-c3ccc([N+](=O)[O-])cc3)nc2c1  inhibition           -2.9
12              Cc1ccccc1Nc1nc(-c2cccnc2)cs1  inhibition           52.8
13             O=C(NC(=O)c1ccccc1)Nc1ccccc1O  inhibition           73.3
14  COc1ccc(CNC(=O)COc2ccccc2C(=O)c2cnn(-c3ccccc3)c2)cc1OC  inhibition           61.9
15           Cc1nn2cc(-c3ccc(Cl)cc3)cnc2c1Br  inhibition           28.5
16              Cc1csc(SCC(=O)Nc2sccc2C#N)n1  inhibition           97.1
17            Cc1cccc(Nc2nc(-c3ccccc3)cs2)n1  inhibition           67.1
18                 Cc1ccn2cc(-c3nonc3C)cc2c1  inhibition           73.7
19  O=C(Oc1ccc(-c2nc(-c3ccccn3)no2)cc1)c1ccccc1  inhibition           14.5
20  CCCc1cc(=O)oc2c(C)c(OCC(=O)Nc3ccccn3)ccc12  inhibition           39.2
21           CCOc1ccc(C(=O)Nc2cccc(SC)c2)cc1  inhibition           76.3
22         C/C(=C\C(=O)c1ccccc1)Nc1cccc(O)c1  inhibition           39.4
23        Cc1c(C(=O)Nc2ccccn2)oc2ccc(Br)cc12  inhibition           22.7
24  Cc1ccsc1C(=O)OCC(=O)c1cc(C)n(CC2CCCO2)c1C (stereo unspecified)  inhibition           96.7
25          COc1ccc(N=C(C)c2sc3ccccc3c2O)cc1  inhibition            9.6
26         O=C(Nc1ccc(C(=O)O)c(O)c1)c1ccccc1  inhibition           93.7
